- System: ITK
- EXPERIMENTAL_PARAMETERS: concentration: 1 μM, replicates: in singlicate; n = 1;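 also: KINOMEscan kinase panel screen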
Give %Inh for every item shown.

Enquiry: Look up %Inh with ITK for this molecule: O=C(Nc1n[nH]c2nc(-c3cccs3)c(Br)cc12)C1CC1
Return: 0%

Enquiry: Look up %Inh with ITK for this molecule: COc1ccc(CSc2nnc(-c3ccc4c(c3)CCO4)o2)cc1
Return: 8%

Enquiry: Look up %Inh with ITK for this molecule: CC[C@@H]1CO[C@H](C(=O)Nc2ccccc2)CN1c1cc(-c2ccc3c(N)n[nH]c3c2)nc(NC)n1
Return: 3%

Enquiry: Look up %Inh with ITK for this molecule: Cc1ccccc1Cn1ccn2c(=O)cc(N3CCOCC3)nc12
Return: 20%

Enquiry: Look up %Inh with ITK for this molecule: CS(=O)(=O)CCNCc1nc(-c2ccc3ncnc(Nc4ccc5c(cnn5Cc5ccccc5)c4)c3c2)cs1.Cl.Cl
Return: 17%

Enquiry: Look up %Inh with ITK for this molecule: Cc1ccc(NC(=O)Nc2ccc(Cl)cc2)cc1-c1ccc(C(=O)Nc2ccncc2)cc1
Return: 18%

Enquiry: Look up %Inh with ITK for this molecule: Fc1ccc(-c2nc[nH]c2-c2ccncc2)cc1
Return: 5%

Enquiry: Look up %Inh with ITK for this molecule: CS(=O)(=O)CCNCc1nc(-c2ccc3ncnc(Nc4ccc(OCc5ccccc5)c(Cl)c4)c3c2)cs1.Cl
Return: 44%

Enquiry: Look up %Inh with ITK for this molecule: Cc1ccc(-c2nc(Nc3ccncc3)c3ccccc3n2)s1
Return: 22%

Enquiry: Look up %Inh with ITK for this molecule: COc1ccc(CSc2nnc(-c3ccc4nccn4c3)o2)cc1C(F)(F)F
Return: 20%

Enquiry: Look up %Inh with ITK for this molecule: COC(=O)C(Cc1ccccc1)NC(=O)NC1CCN(c2ccnc(Nc3ccc(F)cc3)n2)C1 (stereo not shown)
Return: 4%

Enquiry: Look up %Inh with ITK for this molecule: COC(=O)c1cccc(NC(=O)NC2CCN(c3ccnc(Nc4ccc(OC)cc4)n3)C2)c1 (stereo not shown)
Return: 13%

Enquiry: Look up %Inh with ITK for this molecule: Cc1cccc2c(-c3ccncn3)c(-c3ccc(F)cc3)nn12
Return: 7%

###

- Test system: PIK3CD
- EXPERIMENTAL_PARAMETERS: concentration: 1 μM, replicates: in singlicate; n = 1
Give %Inh for every item shown.
Give the number; % is assumed, so skip it.

Enquiry: Given the molecule O=C(Nc1n[nH]c2nc(-c3cccs3)c(Br)cc12)C1CCCC1 [SB-743341] , what is its reported %Inh?
Return: 0

Enquiry: Given the molecule Cc1cnc(N)c(/C=C/c2cncc(C(=O)NCCc3ccc(Cl)cc3Cl)c2)c1.Cl [GSK190937] , what is its reported %Inh?
Return: 0

Enquiry: Given the molecule COC(=O)C(NC(=O)NC1CCN(c2ccnc(Nc3ccc(F)cc3)n2)C1)c1ccccc1 (centres unmarked) [GSK1379712] , what is its reported %Inh?
Return: 23

Enquiry: Given the molecule Cn1cnc2c(N)ncnc21 [SKF-97623] , what is its reported %Inh?
Return: 0

Enquiry: Given the molecule Cc1ccc(NC(=O)Nc2ccccc2)cc1-c1ccc(C(=O)Nc2ccncc2)cc1 [GSK1398471] , what is its reported %Inh?
Return: 0

Enquiry: Given the molecule O=c1cc(N2CCOCC2)nc2n(Cc3cccc(Cl)c3Cl)c3ccccc3n12 [GSK2299009] , what is its reported %Inh?
Return: 3

Enquiry: Given the molecule Cc1cccc2c(-c3ccncn3)c(-c3ccc(F)cc3)nn12 [GW515532] , what is its reported %Inh?
Return: 5

Enquiry: Given the molecule CC(=O)c1cccc(NC(=O)NC2CCN(c3ccnc(Nc4ccc(F)cc4)n3)C2)c1 (centres unmarked) [GSK1379710] , what is its reported %Inh?
Return: 24

###

- Test system: NEK11
- EXPERIMENTAL_PARAMETERS: concentration: 1 μM, replicates: in singlicate; n = 1
READOUT_LABEL: %Inh (%)
Give the number; % is assumed, so skip it.

Enquiry: Given the compound COC(=O)C(NC(=O)NC1CCN(c2ccnc(Nc3ccc(F)cc3)n2)C1)c1ccccc1 (stereo not shown) , what is its reported %Inh?
Return: 0

Enquiry: Given the compound Nc1nccc(-c2c(-c3ccc(F)cc3)ncn2C2CCN(Cc3ccccc3)CC2)n1 , what is its reported %Inh?
Return: 0

Enquiry: Given the compound Cc1nccc(-c2c(-c3ccc(F)cc3)ncn2CCCN2CCOCC2)n1.Cl , what is its reported %Inh?
Return: 16

Enquiry: Given the compound O=C1NC(=O)C(c2ccc(Cl)cc2)=C1Nc1ccc(O)cc1 , what is its reported %Inh?
Return: 0

###

- System: PIK4CB
- Construct: gene PI4KB
- EXPERIMENTAL_PARAMETERS: concentration: 1 μM, replicates: in singlicate; n = 1
READOUT_LABEL: %Inh (%)
Give the number; % is assumed, so skip it.

Enquiry: Look up %Inh with PIK4CB for this molecule: O=C(Nc1n[nH]c2nc(-c3ccco3)c(Br)cc12)C1CCN(Cc2ccccc2)C1.O=C(O)[C@H](O)[C@@H](O)C(=O)O (stereo not drawn)
Return: 14

Enquiry: Look up %Inh with PIK4CB for this molecule: Cc1nccc(-c2c(-c3ccc(F)cc3)ncn2CCCN2CCOCC2)n1.Cl
Return: 42

Enquiry: Look up %Inh with PIK4CB for this molecule: COc1ccc2cc(-c3nc(-c4ccccc4C(C)C)[nH]c3-c3ccncc3)ccc2c1
Return: 0

###

- Tested on: PRKX
- EXPERIMENTAL_PARAMETERS: concentration: 1 μM, replicates: in singlicate; n = 1
Give %Inh for every item shown.
Give the number; % is assumed, so skip it.

Enquiry: Given the compound Cc1c(Cn2c3ccccc3n3c(=O)cc(N4CCOCC4)nc23)cccc1C(F)(F)F , what is its reported %Inh?
Return: 30

Enquiry: Given the compound CNC(=O)c1ccc(C)c(-n2c(C)cc(OCc3ccc(F)cc3F)c(Br)c2=O)c1 , what is its reported %Inh?
Return: 0

Enquiry: Given the compound Nc1cccc(-c2ccc3c(N)n[nH]c3c2)n1 , what is its reported %Inh?
Return: 23

Enquiry: Given the compound CS(=O)(=O)Cc1ccc(Nc2nccc(-c3c(-c4cccc(NC(=O)C5CCCCC5)c4)nn4ncccc34)n2)cc1 , what is its reported %Inh?
Return: 5

Enquiry: Given the compound Nc1ncnc2occ(-c3ccc4c(c3)CCN4C(=O)Cc3cc(F)ccc3F)c12 , what is its reported %Inh?
Return: 0

###

- Tested on: WNK4
- EXPERIMENTAL_PARAMETERS: concentration: 1 μM, replicates: in singlicate; n = 1
READOUT_LABEL: %Inh (%)
Give the number; % is assumed, so skip it.

Enquiry: Given the molecule O=c1cc(N2CCOCC2)nc2n(Cc3ccccc3F)ccn12 [GSK2297428] , what is its reported %Inh?
Return: 0

Enquiry: Given the molecule FC(F)(F)c1ccccc1-c1cc(-c2c[nH]nc2-c2ccccn2)ccn1 [GW679396] , what is its reported %Inh?
Return: 11

Enquiry: Given the molecule COc1ccc(Nc2nccc(N3CCC(NC(=O)C(C)c4ccc(Cl)cc4)CC3)n2)cc1 (stereo not drawn) [GSK1379812] , what is its reported %Inh?
Return: 19

Enquiry: Given the molecule CNCc1ccc2nc(NC(=O)c3ccc(C(C)(C)C)cc3)cn2c1 , what is its reported %Inh?
Return: 13

Enquiry: Given the molecule Nc1nccc(-c2c(-c3ccc(F)cc3)ncn2C2CCN(Cc3ccccc3)CC2)n1 [SB-219980] , what is its reported %Inh?
Return: 0

Enquiry: Given the molecule O=C1NC(=O)C(c2ccc(Cl)cc2)=C1Nc1ccc(O)cc1 [SB-340867] , what is its reported %Inh?
Return: 0

Enquiry: Given the molecule Cn1cncc1-c1cc2c(Nc3ccc(OCc4ccccc4)cc3)ncnc2cn1 [GW281179] , what is its reported %Inh?
Return: 14

Enquiry: Given the molecule Cl.Cl.Cl.N#Cc1ccc(CCNc2nccc(-c3cccc(CN4CCNCC4)c3)n2)cc1 [GSK2137462] , what is its reported %Inh?
Return: 95.5

Enquiry: Given the molecule COc1ccc(-c2coc3ccc(-c4nnc(C)o4)cc23)cc1 , what is its reported %Inh?
Return: 0

Enquiry: Given the molecule COC(=O)c1cccc(NC(=O)NC2CCN(c3ccnc(Nc4ccc(F)cc4)n3)C2)c1 (stereo not drawn) [GSK1379725] , what is its reported %Inh?
Return: 0

Enquiry: Given the molecule Cc1c(Cn2c(C)c(C)n3c(=O)cc(N4CCOCC4)nc23)cccc1C(F)(F)F [GSK2328680] , what is its reported %Inh?
Return: 0

Enquiry: Given the molecule O=C(Nc1n[nH]c2nc(-c3cccs3)c(Br)cc12)C1CCCC1 [SB-743341] , what is its reported %Inh?
Return: 3

Enquiry: Given the molecule Cc1ccc(-c2nc(Nc3ccncc3)c3ccccc3n2)s1 [GSK189015] , what is its reported %Inh?
Return: 0

Enquiry: Given the molecule COc1ccc2cc(-c3nc(-c4ccccc4C(C)C)[nH]c3-c3ccncc3)ccc2c1 [SB-660566] , what is its reported %Inh?
Return: 0

Enquiry: Given the molecule COc1cccc(CNC(=O)NC2CCN(c3ccnc(Nc4ccc(F)cc4)n3)C2)c1 (stereo not drawn) [GSK1379723] , what is its reported %Inh?
Return: 7

Enquiry: Given the molecule COc1cc2ncnc(Nc3cccc(Br)c3)c2cc1OC.Cl [GI230329] , what is its reported %Inh?
Return: 16

Enquiry: Given the molecule CC(=O)c1c(C)c2cnc(Nc3ccn(C)n3)nc2n(C2CCCC2)c1=O , what is its reported %Inh?
Return: 0

Enquiry: Given the molecule NS(=O)(=O)c1cccc(N/C=C2\C(=O)Nc3ccc(S(=O)(=O)Cc4c(Cl)cccc4Cl)cc32)c1 [GSK398099] , what is its reported %Inh?
Return: 0

Enquiry: Given the molecule COC(=O)C(Cc1ccccc1)NC(=O)NC1CCN(c2ccnc(Nc3ccc(F)cc3)n2)C1 (stereo not drawn) [GSK1379714] , what is its reported %Inh?
Return: 45

Enquiry: Given the molecule CNc1nc(-c2ccc3c(N)n[nH]c3c2)cc(N2C[C@@H](C(=O)NC3CCCCC3)OC[C@H]2C)n1 [GSK2375584] , what is its reported %Inh?
Return: 41

Enquiry: Given the molecule Fc1ccc(-c2nn3cccc(F)c3c2-c2ccncc2)cc1 [GW475620] , what is its reported %Inh?
Return: 9

Enquiry: Given the molecule Cc1cnc(N)c(/C=C/c2cncc(C(=O)NCCc3ccc(Cl)cc3Cl)c2)c1.Cl [GSK190937] , what is its reported %Inh?
Return: 4

Enquiry: Given the molecule CNc1nc(-c2ccc3c(N)n[nH]c3c2)cc(N2C[C@@H](C(=O)Nc3ccccc3)CC[C@H]2C)n1 [GSK2298859] , what is its reported %Inh?
Return: 29

Enquiry: Given the molecule O=C1NC(=O)C(c2ccc(Cl)cc2)=C1Nc1cccc(Cl)c1 [SB-317651] , what is its reported %Inh?
Return: 0
